Assign inhibition in vivo at 320 µmol/kg to each entry below.
- Test system: Rattus norvegicus
- protocol.notes: Antiinflammatory activity in Wistar albino rat assessed as inhibition of carrageenan-induced paw edema at 0.32 mmol/kg, ip administered 1 hr prior to carrageenan challenge measured at 2 hrs by plethysmometric analysis relative to control
- Assay type: functional
Give bare numbers, in %.

Reference set (2 entries):
INSERT INTO measurements (molecule, experimental_system, measure_unit, val) VALUES
  ('Cc1ccc(-c2nn(-c3ccc(Cl)cc3)cc2C=O)cc1', 'Rattus norvegicus', '%', 49.9),
  ('COc1ccc(-c2nn(-c3ccc(S(N)(=O)=O)cc3)cc2-c2cc(-c3ccc(Cl)cc3)[nH]c2-c2ccc(F)cc2)cc1', 'Rattus norvegicus', '%', 55.7);

Give inhibition in vivo at 320 µmol/kg for all molecules that follow.
1. Cc1ccc(-c2nn(-c3ccc(S(N)(=O)=O)cc3)cc2/C=C\C(=O)c2ccc(Cl)cc2)cc1
2. COc1ccc(/N=C\c2cn(-c3ccc(S(N)(=O)=O)cc3)nc2-c2ccc(C)cc2)cc1
3. COc1ccc(C(=O)C(CC(=O)c2ccc(Cl)cc2)c2cn(-c3ccc(S(N)(=O)=O)cc3)nc2-c2ccc(C)cc2)cc1 (stereo not drawn)
4. COc1ccc(-c2nn(-c3ccc(S(N)(=O)=O)cc3)cc2/C=N\c2ccc(Cl)cc2)cc1
5. COc1ccc(-c2nn(-c3ccc(Cl)cc3)cc2C=O)cc1
6. COc1ccc(-c2[nH]c(-c3ccc(Cl)cc3)cc2-c2cn(-c3ccc(S(N)(=O)=O)cc3)nc2-c2ccc(C)cc2)cc1

A.
1. 53.3
2. 48.8
3. 53.8
4. 63
5. 63.1
6. 49.7
